procedure_text: qHTS assay for MDR1-selective chemotherapeutics: Primary screen using the drug-selected MDR subline cells KB-V1; note: nearly all actives have a fitted effect of over 60% in size
experimental_setup: KB-V1 MDR cells viability, CellTiter-Glo, 72 h; series mostly up to 46.1 µM
From the text: A prime difficulty in effectively treating cancer is the development of cellular resistance to multiple structurally unrelated anticancer drugs, a phenomenon known as multidrug resistance (MDR). […] Numerous strategies to overcome P-gp-mediated MDR have been explored, including the design of drugs that evade recognition and efflux, and development of inhibitors to block efflux and restore drug accumulation. […]
About 13,000 (3.2%) of roughly 400,000 compounds were called active. Another 18% or so got no clear call; they are omitted. Calls come from the whole dose curve; as a rule, active = well fitted cell-killing curve with a large enough effect; inconclusive = small, poorly fitted or top-dose-only effect, or effect the other way; inactive = flat fitted curve, though single readings scatter. Many of the other results were omitted from the sample, so actives are more common in it than they were.
Labels: active, inactive

{"compound": "CCn1c2c(c(=O)n3ncc(C(=O)N4CCN(c5ccccc5)CC4)c13)CN(Cc1ccc(OC)cc1)CC2", "assigned_label": "inactive"}
{"compound": "COC(=O)C[C@H]1C=C[C@H](NC(=O)c2ccc(F)cc2)[C@@H](CO)O1", "assigned_label": "inactive"}
{"compound": "CCC(=O)N1CCc2cc(Br)cc(S(=O)(=O)CCC(=O)NCc3ccccc3OC)c21", "assigned_label": "inactive"}
{"compound": "COc1ccc(CCNC(=O)CSc2nc3[nH]ncc3c(=O)n2-c2cccc(C(F)(F)F)c2)cc1OC", "assigned_label": "inactive"}
{"compound": "O=C(Nc1ccc(Cl)c(C(F)(F)F)c1)C1Cc2c(-c3ccccc3Oc3ccccc3)ccnc2O1 (stereo not given)", "assigned_label": "inactive"}
{"compound": "CCC(C)N1C(=O)S/C(=C/c2ccc(Sc3nc4ccccc4[nH]3)o2)C1=O (stereo not given)", "assigned_label": "active"}
{"compound": "O=C(CN1C(=O)c2cccc3cccc1c23)Nc1ccccc1", "assigned_label": "inactive"}
{"compound": "O=C(CN1CCN(c2ccccn2)CC1)N1CCc2ccccc21", "assigned_label": "inactive"}
{"compound": "COc1ccccc1OCCOc1ccc(/C=N/n2cnnc2)cc1", "assigned_label": "inactive"}
{"compound": "CC1CCc2c(sc3nc4n(c(=O)c23)CCS4)C1 (stereo not given)", "assigned_label": "inactive"}

====

procedure_text: qHTS assay for MDR1-selective chemotherapeutics: Primary screen using the drug-selected MDR subline cells KB-V1; note: nearly all actives have a fitted effect of over 60% in size
experimental_setup: KB-V1 MDR cells viability, CellTiter-Glo, 72 h; series mostly up to 46.1 µM
From the text: A prime difficulty in effectively treating cancer is the development of cellular resistance to multiple structurally unrelated anticancer drugs, a phenomenon known as multidrug resistance (MDR). […] Numerous strategies to overcome P-gp-mediated MDR have been explored, including the design of drugs that evade recognition and efflux, and development of inhibitors to block efflux and restore drug accumulation. […]
The whole screen tested about 400,000 compounds, of which about 13,000 (3.2%) were called active. About 18% were inconclusive and are not listed. The call rests on the fitted dose curve; in most records, active means well fitted cell-killing curve with a large enough effect; inconclusive means small, poorly fitted or top-dose-only effect, or effect the other way; inactive means flat fitted curve, though single readings scatter. This excerpt belongs to a sample that is enriched for actives.
Labels: active, inactive

{"molecule": "O=S(=O)(c1ccccc1)N1CCc2ccccc21", "assigned_label": "inactive"}
{"molecule": "COc1ccc(NC(=O)N2CCCC(C(=O)Nc3ccccc3OC)C2)cc1 (stereo not given)", "assigned_label": "inactive"}
{"molecule": "CN1CC(c2ccccc2)C2(COc3ccccc3C2=O)C12C(=O)Nc1ccccc12 (stereo not given)", "assigned_label": "active"}
{"molecule": "CC(NC(=O)c1ccccc1SCC(=O)N1CCCC1)c1ccccc1 (stereo not given)", "assigned_label": "inactive"}
{"molecule": "COc1ccc(-c2cc(NCc3ccc(F)cc3)n3cnnc3n2)cc1", "assigned_label": "inactive"}
{"molecule": "C[C@@H]1NC(=O)[C@@]2(C)[C@@H](c3ccccc3)[C@H]3COc4ccccc4[C@@H]3N2C1=O", "assigned_label": "inactive"}
{"molecule": "CCOc1ccccc1NC(=O)C1CCCN(C(=O)Nc2ccccc2)C1 (stereo not given)", "assigned_label": "inactive"}
{"molecule": "NC(=O)CSc1nnc(-c2cccc(S(=O)(=O)N3CCOCC3)c2)o1", "assigned_label": "inactive"}
{"molecule": "O=C(NC(Nc1nc2ccc([N+](=O)[O-])cc2s1)(C(F)(F)F)C(F)(F)F)c1ccccc1", "assigned_label": "active"}
{"molecule": "Cc1nn(C)c2c1c(C(F)(F)F)cc(=O)n2C(C)C(=O)NCc1ccc(Cl)cc1 (stereo not given)", "assigned_label": "inactive"}

====

procedure_text: qHTS assay for MDR1-selective chemotherapeutics: Primary screen using the drug-selected MDR subline cells KB-V1; note: nearly all actives have a fitted effect of over 60% in size; note: potency is the fitted concentration of half-maximal effect
experimental_setup: KB-V1 MDR cells viability, CellTiter-Glo, 72 h; series mostly up to 46.1 µM
In all, about 400,000 compounds went through this assay and about 13,000 (3.2%) were called active. Inconclusive results (about 18%) are left out. The sample holds actives, similar compounds and a random draw of the others, so the mix is not that of the screen.

{"molecule": "O=C(C[C@H]1C[C@@H]2c3cc(NC(=O)C4CCC4)ccc3O[C@@H]2[C@H](CO)O1)NC1CCCCC1", "Potency": "inactive"}
{"molecule": "CC(=O)N1C[C@@H](CO)[C@@H](N(C)C(=O)c2ccco2)C[C@H]1c1ccccc1", "Potency": "inactive"}
{"molecule": "O=S(=O)(ON(c1ccccc1)S(=O)(=O)c1ccccc1)c1ccccc1", "Potency": "23.1 µM (active)"}
{"molecule": "COC(=O)N(C)C[C@@H]1OCc2cnnn2CCCC(=O)N([C@@H](C)CO)C[C@@H]1C", "Potency": "inactive"}
{"molecule": "Cc1ccc(NC(=O)CSc2nc(CSc3ccc(C)cc3)cc(=O)[nH]2)cc1", "Potency": "inactive"}
{"molecule": "COc1ccccc1CNC(=O)CCn1c(=O)sc2ccccc21", "Potency": "inactive"}
{"molecule": "N#Cc1ccc(-c2nc3c(Cl)cc(C(F)(F)F)cn3c2Cc2ccccc2C(F)(F)F)cc1", "Potency": "inactive"}
{"molecule": "Cn1c(CNC(=O)C(C)(C)C)nc2ccccc21", "Potency": "inactive"}
{"molecule": "CCCSc1nc2sc3c(c2c(=O)n1-c1cccc(Br)c1)CC(C)(C)OC3", "Potency": "inactive"}
{"molecule": "CCOCCc1nn2c(=O)cc(COC(=O)CNC(=O)c3ccc(C(C)(C)C)cc3)nc2s1", "Potency": "inactive"}
{"molecule": "Cc1ccccc1S(=O)(=O)NC(=O)C1(C)CCN1C(=O)Cc1ccc(Cl)cc1Cl (stereo unspecified)", "Potency": "inactive"}
{"molecule": "CCOC(=O)c1cnc(SCC(=O)Nc2ccccc2C(=O)OC)nc1N", "Potency": "2.59 µM (active)"}
{"molecule": "CCOc1ccc(CNC(=O)c2ccc3c(c2)nnn3C2CCCC2)cc1", "Potency": "inactive"}
{"molecule": "CCCCN1CC(C)(C)[C@H](CC(=O)Nc2ccc(Br)cc2)C1=O", "Potency": "inactive"}
{"molecule": "COc1cccc(CNC(=O)Cc2csc3nc(-c4ccccc4)cn23)c1", "Potency": "inactive"}
{"molecule": "COc1ccc(NC(=O)CSc2nc(NS(=O)(=O)c3ccc(C)cc3)cc(=O)[nH]2)cc1", "Potency": "3.66 µM (active)"}
{"molecule": "CCC(=O)N1CCc2cc(S(=O)(=O)NC(CC(C)C)C(=O)NCCc3cccc(C)c3)ccc21 (stereo unspecified)", "Potency": "inactive"}
{"molecule": "C[C@H]1CN([C@@H](C)CO)C(=O)c2cc(-c3cccc(F)c3)cnc2O[C@@H]1CN(C)S(C)(=O)=O", "Potency": "inactive"}
{"molecule": "CCCNC(=O)CSc1nc(Cc2ccccc2)nc2ccccc12", "Potency": "inactive"}
{"molecule": "Cc1cccc(CSc2nnc(Cn3c(=O)sc4ccccc43)n2C)c1", "Potency": "inactive"}
{"molecule": "O=C(c1ccco1)N(Cc1cccs1)c1ccc(O)cc1", "Potency": "inactive"}
{"molecule": "Cc1cc([N+](=O)[O-])ccc1NS(=O)(=O)c1ccccc1", "Potency": "inactive"}
{"molecule": "COc1ccc(Cn2c(=O)sc3ccccc32)cc1OC", "Potency": "2.59 µM (active)"}
{"molecule": "O=C(c1ccc2c(c1)N(Cc1ccccc1F)C(=O)c1ccccc1S2(=O)=O)N1CCOCC1", "Potency": "inactive"}
{"molecule": "COC(=O)C1(C(=O)OC)C/C=C\\CN(S(=O)(=O)c2ccccc2[N+](=O)[O-])CCC1", "Potency": "inactive"}
{"molecule": "CC(C)CC(=O)N=C1SC2CS(=O)(=O)CC2N1CCc1ccccc1 (stereo unspecified)", "Potency": "13 µM (active)"}
{"molecule": "CCc1cccc(NC(=O)c2cnc(N3CCOCC3)c3ccccc23)c1", "Potency": "inactive"}
{"molecule": "CCOC(=O)c1cnc(SCC(=O)Nc2cccc(OC)c2)nc1N", "Potency": "inactive"}
{"molecule": "Cc1cccc(N(CC(O)CN(C)C)S(=O)(=O)c2ccccc2)c1 (stereo unspecified)", "Potency": "inactive"}
{"molecule": "O=[N+]([O-])c1ccc(NS(=O)(=O)c2ccccc2)c(Cl)c1", "Potency": "23.1 µM (active)"}
{"molecule": "C=CCC[C@H](CCCCC)OC(=O)/C=C/[C@H](O)[C@@H](O)C[C@@H](O)CC=C", "Potency": "inactive"}
{"molecule": "Cc1cc(C(=O)OCC(=O)NCc2ccco2)c(C)n1-c1ccccc1", "Potency": "2.59 µM (active)"}
{"molecule": "CN(C)c1ccc(C(CNS(=O)(=O)c2cc(F)ccc2F)N2CCOCC2)cc1 (stereo unspecified)", "Potency": "inactive"}
{"molecule": "CN(c1ccccc1)S(=O)(=O)c1ccc(Cl)c(C(=O)OCC(=O)NCc2ccco2)c1", "Potency": "inactive"}
{"molecule": "CO[C@H]1O[C@@H]2O[C@@]3(C)CC[C@@H]4[C@@H](C)CC[C@@H]([C@H]1C)[C@@]24OO3", "Potency": "inactive"}
{"molecule": "COc1cccc(CNC(=O)CCC2CCCN(C(=O)c3cc(C)[nH]n3)C2)c1 (stereo unspecified)", "Potency": "inactive"}
{"molecule": "O=C(NNS(=O)(=O)c1ccc(F)cc1)c1ccc([N+](=O)[O-])cc1Cl", "Potency": "inactive"}
{"molecule": "O=C(COC(=O)c1ccccc1O)NCc1ccco1", "Potency": "inactive"}
{"molecule": "Cc1[nH]c2ccccc2c1C(=O)C(=O)NCc1nnnn1-c1cccc(F)c1", "Potency": "inactive"}
{"molecule": "Cc1[nH]c2c(C(=O)N3CCCC(CCC(=O)NCc4ccccc4F)C3)cccc2c1C (stereo unspecified)", "Potency": "16.4 µM (active)"}
{"molecule": "CCC1(C)Cc2c(sc3nc4n(c(=O)c23)CCCS4)CO1 (stereo unspecified)", "Potency": "inactive"}
